The reported measurements were obtained from patent US7960397B2.

# System: promyelocytic HL-60 leukemia
# protocol_text: In vitro cytotoxicity, Calcein AM assay
# measurement_setup: read-out: GI50 HL60; HL60, 72 hours, Calcein AM
measure: GI50

Below, 3 compounds whose answers are already recorded.
| compound | tgt | GI50 |
| --- | --- | --- |
| Cc1cc(Nc2ncnc3c2ncn3C2CCCCO2)ccc1O (stereo not drawn) [4-hydroxy-3-methylanilino / tetrahydropyran-2-yl] | promyelocytic HL-60 leukemia | > 167 µM |
| CCOCCn1cnc2c(NCc3ccc(O)cc3)ncnc21 | promyelocytic HL-60 leukemia | > 167 µM |
| C/C(=C\CNc1ncnc2c1ncn2CCCCCl)CO | promyelocytic HL-60 leukemia | > 167 µM |

Would you mind giving GI50 for every compound in the list below?
1. Oc1ccccc1CNc1ncnc2[nH]cnc12 [2-hydroxybenzylamino / H, reference compound]
2. CC(C)=CCNc1ncnc2nc[nH]c12
3. Cc1cc(CNc2ncnc3c2ncn3C2CCCCO2)ccc1O (stereo not drawn) [4-hydroxy-3-methylbenzylamino / tetrahydropyran-2-yl]
4. C/C(=C\CNc1ncnc2c1ncn2C1CCCO1)CO (stereo not drawn)

1: 78 µM; 2: > 167 µM; 3: > 167 µM; 4: > 167 µM

Would you mind giving GI50 for every compound in the list below?
1. Oc1cccc(CNc2ncnc3[nH]cnc23)c1 [3-hydroxybenzylamino / H, reference compound]
2. Cc1cc(CNc2ncnc3c2ncn3C2CCCCO2)ccc1O (stereo not drawn) [4-hydroxy-5-methylbenzylamino / tetrahydropyran-2-yl]

["79.2 µM", "> 1670 µM"]
